- target of assay: human CYP11B2 (Homo sapiens, UniProt P19099)
- Construct: The main elements of an expression plasmid include ORF of human CYP11B1 or human CYP11B2; expressed in transfected cells
- Sequence (P19099 25-503): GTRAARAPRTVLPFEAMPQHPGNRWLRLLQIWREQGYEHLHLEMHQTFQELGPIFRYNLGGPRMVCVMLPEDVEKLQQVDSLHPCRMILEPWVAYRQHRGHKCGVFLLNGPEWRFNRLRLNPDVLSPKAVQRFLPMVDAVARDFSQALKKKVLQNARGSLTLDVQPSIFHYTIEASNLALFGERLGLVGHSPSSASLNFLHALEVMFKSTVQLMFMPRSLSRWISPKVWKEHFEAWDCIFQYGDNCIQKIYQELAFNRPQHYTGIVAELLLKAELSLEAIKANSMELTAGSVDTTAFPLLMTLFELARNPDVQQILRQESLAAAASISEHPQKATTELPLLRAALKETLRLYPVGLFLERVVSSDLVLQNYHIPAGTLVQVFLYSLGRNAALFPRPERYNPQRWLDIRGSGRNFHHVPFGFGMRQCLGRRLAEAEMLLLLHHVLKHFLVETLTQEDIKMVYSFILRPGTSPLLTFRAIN
- assay overview: G-402 cell enzyme experiment, human CYP11B2 (aldosterone production, HTRF)
- Type: cell-based
- stated conditions: G-402 cells stably expressing human CYP11B2; 1 μM 11-deoxycorticosterone; 16 h; aldosterone by HTRF
- Procedure: G-402 cell line was used as host cells to express (by transient or stable transfection) an enzyme of the human CYP11 family. Specifically, G-402 cell lines stably expressing human CYP11B1 and human CYP11B2 were established respectively. […] Therefore, the G-402 cell line is very suitable as a host cell for the ectopic expression of an enzyme of the CYP11 family. […] The EC50 value of the compound of the present patent was determined by the above G-402 experiment system. […]
Can you tell me EC50 for the items I'm about to list?
Give the number; nM is assumed, so skip it.

So what's the measured EC50 for this one? CN1C(=O)CCc2cc(-c3cncc4c3CCC[C@H]4NC(=O)CC34CC(C3)C4)ccc21 [Example 37]
35

CN1C(=O)OCc2cc(-c3cncc(C4=CCN(S(=O)(=O)C5CC5)CC4)c3)ccc21 [Example 68] , same question.
7

CCC(=O)N[C@@H]1CCCc2c(-c3ccc4c(c3)COC(=O)N4C)cncc21 [Example 1-A] , same question.
70

CCS(=O)(=O)N1CC(Oc2cncc(-c3ccc4c(c3)COC(=O)N4C)c2)C1 [Example 58] , same question.
48

* * *

- assay overview: Pharmacokinetic assay in mice
- Assay type: in vivo
- stated conditions: mouse; male Balb/c mice, plasma; table does not print the route (objective: oral administration, PO 5 mg/kg)
measured attribute: half-life (h)
Give the number; h is assumed, so skip it.

So what's the measured half-life for this one? CCC(=O)N[C@@H]1CCCc2c(-c3ccc4c(c3)COC(=O)N4C)cncc21
2.7
